assay: melting temperature; fluorescence melt of hairpins on a sequencing array, two-state fit, raised by 9.35 °C to match UV melts; conditions: sodium 0.088 M
What Tm was measured for each of the following?
One number for each entry, in °C.

Sample answers from the record:
GGCTTCGAAAGAATGGCC ((((((....)))..))) | 42.2
GATCACCGCGTGATC ((((((...)))))) | 61.9
GCGCTGGGAAACCAGCAC (.(((((....))))).) | 50.4
CGCATCGGAAACGACGCG (((.(((....))).))) | 51.6
GTTACTGGAAACGGTAAC (((((.(....).))))) | 43.9

Please give Tm, item by item, for the list that follows.
1. GGGCTCCGAAAGGATCCC (((.(((....))).)))
2. GTTTCTCGAAAGAGAAC (((.(((....))))))
3. GATCGCTAACGCGATC ((((((....))))))
4. GCAAGGGGAAACCCCTAC (.(.(((....))).).)
5. GTTGTCGAAAGACTAAAC ((((((....)))..)))
6. GGTAGCGAAAGCTAACC ((((((....))).)))

Response:
1: 53.5; 2: 42.4; 3: 66.5; 4: 28.7; 5: 29.5; 6: 53.8

Please give Tm, item by item, for the list that follows.
1. GCGCTAGGAAACTAGCAC (.(((((....))))).)
2. GGCCGCGAAAGCGTTGCC ((((((....)))..)))
3. GCTGATGGAAACATCAGC (((((((....)))))))
4. GTCTATACGAAAGTAGAC (((..(((....))))))

Response:
44
56
67.6
36.7

Please give Tm, item by item, for the list that follows.
1. GCCGAGCGAAAGCTCAGC ((.((((....)))).))
2. GGGTGCCGAAAGGCCCCC (((.(((....))).)))
3. GCTACGGGAAACCGCAAC (.(.(((....))).).)
4. GATCTTGCGGAAGATC ((((((....))))))

Response:
[58, 66.8, 24.1, 42.7]

====

test: melting temperature; fluorescence melt of hairpins on a sequencing array, two-state fit, raised by 9.35 °C to match UV melts; conditions: sodium 0.088 M
Endpoint label: Tm (°C)
Answers are plain numbers, in °C.

Sample answers from the record:
GATCACTAGGTGATC ((((((...)))))) | 55.2
GGTGTCGCGAAAGCGACC (((..(((....)))))) | 54
GAGTACGAAAGTATTCTC ((((((....)))..))) | 42.6
GATCAGACCCCTGATC ((((((....)))))) | 47.7
GTGGGGGGAAACCCTCGC (.(.(((....))).).) | 40.8
GAGTACGAAAGTAACTC ((((((....))).))) | 45.4
GATCGACAGATCGATC ((((((....)))))) | 54.8
GGCCTCCGAAAGGACGCC (((.(((....))).))) | 53.6
GTCCTGGAAACAGGAC ((((((....)))))) | 63
GGACAAGGAAACTTGTTC (.(((((....))))).) | 43

Please give Tm, item by item, for the list that follows.
1. GGGTAGGCGAAAGCCCCC (((..(((....))))))
2. GACAAGCCGAAAGGCGTC (((..(((....))))))

Response:
1: 53; 2: 42.3

====

assay: melting temperature; fluorescence melt of hairpins on a sequencing array, two-state fit, raised by 9.35 °C to match UV melts; details: sodium 0.088 M
true (1) means recorded Tm is 50 °C or above; false (0) means it is below 50 °C.

These recorded examples may help you get a feel for the data.
GCGAGACCTCGC ((((....)))) | true (1)
GAATGTGGAAACGCATTC (((((.(....).))))) | false (0)
GAAGGCGAAAGCCAGTTC ((((((....)))..))) | false (0)
GATCCGAAACCGGATC ((((((....)))))) | true (1)

Query: Please check the record GCTGATGGAAACATTGGC ((..(((....)))..)) and state if its Tm is at or above 50 °C.
Response: false (0)

Query: Please check the record GGAGCTCCGAAAGGATCC (((..(((....)))))) and state if its Tm is at or above 50 °C.
Response: false (0)

Query: Please check the record GATCGGCAGCCCGATC ((((((....)))))) and state if its Tm is at or above 50 °C.
Response: true (1)

Query: Please check the record GATTAAGCGAAAGCTATC (((..(((....)))))) and state if its Tm is at or above 50 °C.
Response: false (0)

Query: Please check the record GCGAGACCGAAAGGTCGC (((..(((....)))))) and state if its Tm is at or above 50 °C.
Response: true (1)

====

assay: folding enthalpy; higher = less favourable; fluorescence melt of hairpins on a sequencing array, two-state fit; conditions: sodium 0.088 M
What folding enthalpy was measured for each of the following?
Numbers only, in kcal/mol.

GATCGCGATGGCGATC ((((((....)))))) | -37.7

Please give folding enthalpy, item by item, for the list that follows.
1. GCCTCGCGAAAGCGTCGC ((..(((....)))..))
2. GCGGTGCGAAAGCATAGC ((..(((....)))..))
3. GATCGATGTCTCGATC ((((((....))))))
4. GCTCCTGGAAACAGAAGC (((.(((....))).)))
5. GCGGTTATCCGC ((((....))))
6. GTATGGGCGAAAGCCTAC (((..(((....))))))
7. TCGTGGAAACACGA (((((....)))))
8. GAAGGGGCGAAAGCCTTC (((..(((....))))))

Response:
[-12.2, -25.4, -39, -28.5, -30, -7.19, -18.3, -9.14]

Please give folding enthalpy, item by item, for the list that follows.
1. GCTAACCGAAAGGTCAGC (((.(((....))).)))
2. GTCAGGGGAAACCTTGGC (.((.((....)).)).)
3. GATCATGTCATGATC ((((((...))))))
4. GATCCATCGTTGGATC ((((((....))))))
5. GCTTTCGAAAGAACAAGC ((((((....)))..)))
6. CGTCGCCGGAAACGGACG (((..(((....))))))
7. GCGTTGCGAAAGCTTCGC (((..((....))..)))
8. CAGTGGAAACACTG (((((....)))))

Response:
-29.7
-17.3
-32.5
-43.1
-24.3
-17.8
-14.3
-23

Please give folding enthalpy, item by item, for the list that follows.
1. GATCTGATGCCAGATC ((((((....))))))
2. GCGAACGAAAGTTTGCGC ((((((....)))..)))
3. GCGACGGGAAACCATCGC ((((.((....)).))))
4. GATCAGGCCACTGATC ((((((....))))))
5. CGGGCGGAAACGCGCCG ((((((....))).)))
6. GTAATTGGAAACAATTAC (((((((....)))))))
7. GATGGTGGAAACGTCATC ((((..(....)..))))
8. GTCGGGTCGAAAGACGAC (((..(((....))))))

Response:
1: -33.4; 2: -41.9; 3: -45.5; 4: -36.4; 5: -16.6; 6: -45.9; 7: -19.6; 8: -19.8

Please give folding enthalpy, item by item, for the list that follows.
1. GCCTATCGAAAGATTGGC (((.(((....))).)))
2. GTTAAACGAAAGTTAAC (((.(((....))))))

Response:
1. -35.2
2. -17.2

====

What Tm was measured for each of the following?
assay: melting temperature; fluorescence melt of hairpins on a sequencing array, two-state fit, raised by 9.35 °C to match UV melts; conditions: sodium 0.088 M
Answers are plain numbers, in °C.

Sample answers from the record:
GATCCGGCCACGGATC ((((((....)))))) | 67.5
GTCCCCGAAAGGGTAGAC ((((((....)))..))) | 40.6
GGCCGTCGAAAGACGCC (((.(((....)))))) | 62.8
GATCTAAATTTAGATC ((((((....)))))) | 44.3
GCATAGCGAAAGCCAGGC ((.(.((....)).).)) | 32.9

Now look at this entry.
Query: I would be grateful if you could share the reported Tm for GATTTACGAAAGTAGATC (((.(((....))).))) .
Response: 41.9

The values you see were collected from the array DNA melting data of Ke et al. (doi:10.1101/2024.01.08.574731).
